System: Hepatitis C virus
Test: Antiviral activity against Hepatitis C virus genotype 1a by cell-based assay
Assay type: functional, organism-based, Hepacivirus hominis
Details: subtype 1a
pEC50: −log10 of the molar value.
Catalogue of compounds with associated pEC50
readout: pEC50

compound="Cn1c(C2(NC(=O)c3ccc4c(C5CCCC5)c(-c5ncc(Br)cn5)n(C)c4c3)CCC2)nc2ccc(/C=C/C(=O)O)cc21 [DELEOBUVIR]" readout=pEC50 reported=7.37
compound="COc1ccc2c(c1)[C@@H]1C[C@]1(C(=O)N1[C@@H]3CC[C@H]1CN(C)C3)Cn1c-2c(C2CCCCC2)c2ccc(C(=O)NS(=O)(=O)N(C)C)cc21 [BECLABUVIR]" readout=pEC50 reported=8.52

----------
Test system: Liver microsome
Conditions: human, microsomes
Catalogue of compounds with associated Stability
readout: Stability (%)

compound="COc1ccc2c(c1)C1CC1(C(=O)N1CCN(C(=O)N(C)C)CC1)Cn1c-2c(C2CCCCC2)c2ccc(C(=O)NS(=O)(=O)N(C)C)cc21 (racemic)" tested_on="Liver microsome" reported=64
compound="COc1ccc2c(c1)C1CC1(C(=O)N1C[C@@H](C)N[C@@H](C)C1)Cn1c-2c(C2CCCCC2)c2ccc(C(=O)NS(=O)(=O)N(C)C)cc21 (mixture of isomers)" tested_on="Liver microsome" reported=91
compound="COc1ccc2c(c1)C1CC1(C(=O)N1C3CC1CN(C)C3)Cn1c-2c(C2CCCCC2)c2ccc(C(=O)NS(=O)(=O)N(C)C)cc21 (racemic)" tested_on="Liver microsome" reported=100
compound="COc1ccc2c(c1)C1CC1(C(=O)N1C3CCC1CNC3)Cn1c-2c(C2CCCCC2)c2ccc(C(=O)NS(=O)(=O)N(C)C)cc21 (racemic)" tested_on="Liver microsome" reported=96

----------
Test: Inhibition of human phosphodiesterase 4 by functional assay
pIC50: −log10 of the molar value.
readout: pIC50

mol=COc1ccc2c(c1)[C@@H]1C[C@]1(C(=O)N1[C@@H]3CC[C@H]1CN(C)C3)Cn1c-2c(C2CCCCC2)c2ccc(C(=O)NS(=O)(=O)N(C)C)cc21 reported=5.00

----------
Experiment: Plasma concentration in rat at 5 mg/kg, iv after 6 hrs
Format: ADME, organism-based
Design: dose 5 mg/kg, route intravenous
readout: concentration at 6 h (nM)

mol=COc1ccc2c(c1)[C@@H]1C[C@]1(C(=O)N1C3CC1CN(C)C3)Cn1c-2c(C2CCCCC2)c2ccc(C(=O)NS(=O)(=O)N(C)C)cc21 reported=409

----------
Catalogue of molecules with associated concentration at 4 h
Assay: Plasma concentration in rat at 10 mg/kg, po after 4 hrs
Assay type: ADME, organism-based
Set-up: dose 10 mg/kg, route oral
readout: concentration at 4 h (nM)

molecule="COc1ccc2c(c1)C1CC1(C(=O)N1C[C@@H](C)N(C)[C@@H](C)C1)Cn1c-2c(C2CCCCC2)c2ccc(C(=O)NS(=O)(=O)N(C)C)cc21 (mixture of isomers)" uom=nM reported=158
molecule="COc1ccc2c(c1)C1CC1(C(=O)N1CC(C)(O)C1)Cn1c-2c(C2CCCCC2)c2ccc(C(=O)NS(=O)(=O)N(C)C)cc21 (racemic)" uom=nM reported=25
molecule="COc1ccc2c(c1)C1CC1(C(=O)N1CC(O)C1)Cn1c-2c(C2CCCCC2)c2ccc(C(=O)NS(=O)(=O)N(C)C)cc21 (racemic)" uom=nM reported=11
molecule="COc1ccc2c(c1)C1CC1(C(=O)N1C[C@@H](C)N(C(C)=O)[C@@H](C)C1)Cn1c-2c(C2CCCCC2)c2ccc(C(=O)NS(=O)(=O)N(C)C)cc21 (mixture of isomers)" uom=nM reported=14

Data credit: ChEMBL document CHEMBL3124792
